test_parameters: [M+Na]+; instrument: DT; single field, calibrated with ESI Low Concentration Tuning Mix (Agilent)
Parameter collision cross section (N2): see the listing below.
Form entry: value (Å²) — number only.

In the examples that follow, each entry is paired with its recorded collision cross section (N2).
Nc1nc(=O)c2[nH]cnc2[nH]1	137.8
CCCCCCSC[C@H](NC(=O)CC[C@H](N)C(=O)O)C(=O)NCC(=O)O	200.9
CC(=O)N[C@@H]1C(O)O[C@H](CO)[C@@H](O)[C@@H]1O (stereo partly drawn)	150.2

Task: # query: collision cross section (N2) of entry `CCCCCCCCCCCC(=O)O[C@H](CC(=O)[O-])C[N+](C)(C)C`
Result: 209.4

Task: # query: collision cross section (N2) of entry NC(=O)[C@@H](N)Cc1c[nH]c2ccccc12 [L-TRYPTOPHANAMIDE]
Result: 147.7

Task: # query: collision cross section (N2) of entry O=C(O)CC(O)(CC(=O)O)C(=O)O [CITRATE]
Result: 143.1

Task: # query: collision cross section (N2) of entry `NC(=O)NCCC[C@H](N)C(=O)O`
Result: 139.4

Task: # query: collision cross section (N2) of entry NCCP(=O)(O)O [(2-AMINOETHYL)PHOSPHONATE]
Result: 136.5

Task: # query: collision cross section (N2) of entry `Nc1ncnc2c1ncn2[C@@H]1O[C@H](CSCC[C@H](N)C(=O)O)[C@@H](O)[C@H]1O`
Result: 189

Value source: the C3SDB collision cross section collection
